Test system: organoids from colon cancer tissues (CRC-PDTO1-4)
TEST_METHOD_NOTES: Patient-Derived Organoid cytotoxicity assay
Format: cell-based, human
STATED_CONDITIONS: read-out: IC50 CRC-PDTO4; organoid CRC-PDTO4, 96 hours of treatment
pIC50: −log10 of the molar value.

COMPOUND | pIC50
O=C1[O][Pt]2([NH][C@@H]3CCCC[C@H]3[NH]2)[O]C1=O [Oxaliplatin, reference compound] | < 4.00

---

System: organoids from colon cancer tissues (CRC-PDTO1-4)
TEST_METHOD_NOTES: Patient-Derived Organoid cytotoxicity assay
Format: cell-based, human
STATED_CONDITIONS: read-out: IC50 CRC-PDTO2; organoid CRC-PDTO2, 96 hours of treatment

COMPOUND | STUDY_SYSTEM | IC50 [µM]
O=C1[O][Pt]2([NH][C@@H]3CCCC[C@H]3[NH]2)[O]C1=O [Oxaliplatin, reference compound] | organoids from colon cancer tissues (CRC-PDTO1-4) | 4
